protocol: inhibitors of TNFa-induced NFkB p65 translocation, primary screen, imaging, HUVEC, MLSMR starter and 10KST1 sets (AID 438);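 further: compound added about 3h40 before a 20 min TNFalpha stimulation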
condition_details: HUVEC TNFa-induced p65 nuclear translocation; measured here: nuclei count (cytotoxicity indicator), at 2.08 µM
cell count of 500 or higher: Yes. Under 500: No.

{"compound": "CCCn1cc(C(CC(=O)O)C(=O)O)c2ccccc21 (centres undefined)", "class": "No"}
{"compound": "CC(C)(C)Nc1nc(NC(C)(C)C)nc(-n2ccnc2)n1", "class": "No"}

Problem: Exam item: decide whether the reported cell count for CCOC(=O)C1=C(N)OC2=C(C(=O)CC(C)(C)C2)C1c1ccco1 (centres undefined) is at least 500.
Result: No
